Tested on: P388 leukemia ip, CD2F1 mice, survival T/C
Assay: NCI In Vivo Anticancer Drug Screen. Data for tumor model P388 Leukemia (intraperitoneal) in CD2F1 (CDF1) mice
Conditions: endpoint: median survival time; dose: 50.0 mg/kg/injection; schedule: Q01DX009 (ip); vehicle: saline with Tween-80
Procedure: The antitumor activity of compounds was measured in mice bearing transplantable tumors. Survival or tumor size were measured and the results are expressed as the measurement made in the treated group (T) divided by the measurement made in the vehicle treated control group (C). The tumor model used in this assay is P388 Leukemia (intraperitoneal) in CD2F1 (CDF1) mice
Toxic doses and inconclusive results are not listed. The calls were made as follows: active = survival T/C of 150% or more; inactive = T/C below 125% in these data.
Reply using exactly one outcome from class 1 (active), class 0 (inactive)

-- ask Please indicate how the test categorized CC(=O)Nc1cscc1NC(C)=O .
-- reply class 0

-- ask Look up the recorded call for CC1=CC=CC(C)(C(Cl)Cl)C1=O (configuration not stated) in this test.
-- reply class 0

-- ask How was Cc1ccc(CO)c2ccccc12 classified in this test?
-- reply class 0

-- ask // return assay outcome for Cc1cnc2ccccc2c1/C=C/c1ccc(N(C)C)cc1
-- reply class 0

-- ask Assay outcome for Cc1cc2c(c(C#N)c1C)NC=NC2C (configuration not stated) : what was it?
-- reply class 0

-- ask Recorded test outcome, item CCCC/C=C/[Se]c1ccccc1
-- reply class 1

-- ask # fetch the recorded call for O=C(NC(=O)C(F)(F)C(F)(F)C(F)(F)F)Nc1ccc(F)c(Cl)c1 here
-- reply class 0

Measured values drawn from PubChem BioAssay AID330 for this set.
